TARGET_SYSTEM: T1, human IL-17A (human, UniProt Q16552 24-155)
T1 construct: secreted form made in Hek293 cells (GenBank U32659); also called hIL-17A; hIL17A
T1 sequence (Q16552 other isoform, or with tags, fused parts or gaps): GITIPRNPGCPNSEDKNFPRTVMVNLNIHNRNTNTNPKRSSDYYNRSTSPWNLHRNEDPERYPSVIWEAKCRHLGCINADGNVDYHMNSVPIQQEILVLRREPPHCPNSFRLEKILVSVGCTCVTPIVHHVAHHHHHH
EXPERIMENTAL_PROTOCOL: SPR (Biacore) off-rate
binders and their reported koff
Form entry: value (s⁻¹) — number only.

These recorded examples may help you get a feel for the data.
IL17MS3037 (VHH, variant of IL17MS13E02; Kabat numbering) VHH: EVQLVESGGGLVQAGGSLRLSCAASGRTYDAMGWLRQAPGKEREFVAAISGSGDDTYYADSVKGRFTISKDNAGITMYLQMNSLKPEDTAVYYCATRRGLYYVWDANDYENWGQGTQVTVSS ... 0.000116
IL17MS3036 (VHH, variant of IL17MS13E02; Kabat numbering) VHH: EVQLVESGGGLVQAGGSLRLSCAASGRTYDAMGWLRQAPGKEREFVAAISGSGDDTYYADSVKGRFTISKDNAGITMYLQMNSLKPEDTAVYYCATRRGLYYVWDTNDYENWGQGTQVTVSS ... 0.000132
IL17MS13E02 (VHH, Class 4 Nanobody, wild type; also called WT) VHH: EVQLVESGGGLVQAGGSLRLSCAASGRTYDAMGWLRQAPGKEREFVAAISGSGDDTYYADSVKGRFTISKDNAGITMYLQMNSLKPEDTAVYYCATRRGLYYVWDSNDYENWGQGTQVTVSS ... 0.000114

Q. // fetch koff given entry IL17MS3018 (VHH, basic variant of IL17MS13E02; Kabat numbering; also called IL17MS3018 basic) VHH: EVQLVESGGGLVQPGGSLRLSCAASGRTYDAMGWLRQAPGKEREFVAAISGSGDDTYYADSVKGRFTISKDNSGITMYLQMNSLRPEDTAVYYCATRRGLYYVWDSNDYENWGQGTLVTVSS
A. 9.26e-05
